molecular target: KasQ (Streptomyces kasugaensis, UniProt A0A0K1H2R6); assay: Isothermal titration calorimetry (ITC) of KasQ wild type versus substrates; assay type: binding; details: ITC; KasQ wild type, 25 °C, 50 mM HEPES pH 8.0, 100 mM NaCl; read-out: Kd;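 note: titration of 1 mM substrate into 0.1 mM KasQ, 18 injections spaced 120 s, data fitted to a single-site binding model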
Sequence (A0A0K1H2R6 entry or part of it): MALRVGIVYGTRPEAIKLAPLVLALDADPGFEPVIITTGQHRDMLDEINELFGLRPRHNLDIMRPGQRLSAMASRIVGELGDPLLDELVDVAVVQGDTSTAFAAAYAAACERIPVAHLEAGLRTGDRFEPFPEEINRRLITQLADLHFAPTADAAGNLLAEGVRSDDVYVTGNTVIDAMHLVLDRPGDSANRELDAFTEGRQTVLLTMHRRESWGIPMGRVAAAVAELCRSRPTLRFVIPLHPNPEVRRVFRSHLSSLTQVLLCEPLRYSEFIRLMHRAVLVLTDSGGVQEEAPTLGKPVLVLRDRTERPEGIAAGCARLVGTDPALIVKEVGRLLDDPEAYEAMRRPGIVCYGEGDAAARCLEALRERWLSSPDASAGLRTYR
Lab note: cut-off is 100 µM. Strictly less in Kd is Condition met. Exactly 100 µM or more is Condition not met.

Check out these entries, answers already filled in.
* O=c1ccn([C@@H]2O[C@H](COP(=O)(O)O)[C@@H](O)[C@H]2O)c(=O)[nH]1 | Condition not met
* O=c1ccn([C@@H]2O[C@H](COP(=O)(O)OP(=O)(O)OP(=O)(O)O)[C@@H](O)[C@H]2O)c(=O)[nH]1 | Condition met
* Cc1cn([C@H]2C[C@H](O)[C@@H](COP(=O)(O)OP(=O)(O)O[C@H]3O[C@H](CO)[C@@H](O)[C@H](O)[C@H]3O)O2)c(=O)[nH]c1=O | Condition met
* O=C(O)[C@H]1O[C@H](OP(=O)(O)OP(=O)(O)OC[C@H]2O[C@@H](n3ccc(=O)[nH]c3=O)[C@H](O)[C@@H]2O)[C@H](O)[C@@H](O)[C@@H]1O | Condition met
* Cc1cn([C@H]2C[C@H](O)[C@@H](COP(=O)(O)OP(=O)(O)OP(=O)(O)O)O2)c(=O)[nH]c1=O | Condition not met

Now look at this entry.
is_below(Kd, 100 µM) for O=c1ccn([C@@H]2O[C@H](COP(=O)(O)OP(=O)(O)O)[C@@H](O)[C@H]2O)c(=O)[nH]1 ?
Condition met
